// Intrinsic activity lookup, one value per entry
- EXPERIMENTAL_TARGET: Histamine H2 receptor (Cavia porcellus)
- PROCEDURE_TEXT: Intrinsic agonist activity at H2R in spontaneously beating guinea pig right atrium assessed as increase in heart rate relative to histamine
- Assay type: functional, tissue-based
- PARTICULARS: Cardiac atrium
Reply with just the number.

Some solved entries appear below for comparison.
COMPOUND | Intrinsic activity
Cc1nc(N)sc1CCCN/C(N)=N/C(=O)CCCCCCCCCCC(=O)/N=C(\N)NCCCc1sc(N)nc1C | 0.46
Cc1nc(N)sc1CCCN/C(N)=N/C(=O)CCCCCCCC(=O)/N=C(\N)NCCCc1sc(N)nc1C | 0.71
Cc1nc(N)sc1CCCN/C(N)=N/C(=O)CCCCCCCCC(=O)/N=C(\N)NCCCc1sc(N)nc1C | 0.62
Cc1nc(N)sc1CCCN/C(N)=N/C(=O)CCCCC(=O)/N=C(\N)NCCCc1sc(N)nc1C | 0.88
Cc1nc(N)sc1CCCN/C(N)=N/C(=O)CCCCCCCCCCCCCCC(=O)/N=C(\N)NCCCc1sc(N)nc1C | 0.53
N/C(=N\C(=O)CCCCCCCCC(=O)/N=C(\N)NCCCc1c[nH]cn1)NCCCc1c[nH]cn1 | 0.91
Cc1nc(N)sc1CCCN/C(N)=N/C(=O)CCCCCCC(=O)/N=C(\N)NCCCc1sc(N)nc1C | 0.64
Cc1nc(N)sc1CCN [AMTHAMINE] | 0.95

Then this compound:
Exercise: Which Intrinsic activity value belongs to Cc1nc(N)sc1CCCN/C(N)=N/C(=O)CCCCCCCCCCCCCCCCCCCCC(=O)/N=C(\N)NCCCc1sc(N)nc1C ?
Key: 0.62

---

- EXPERIMENTAL_TARGET: Histamine H2 receptor (Cavia porcellus) (UniProt P47747)
- Sequence (P47747 whole entry): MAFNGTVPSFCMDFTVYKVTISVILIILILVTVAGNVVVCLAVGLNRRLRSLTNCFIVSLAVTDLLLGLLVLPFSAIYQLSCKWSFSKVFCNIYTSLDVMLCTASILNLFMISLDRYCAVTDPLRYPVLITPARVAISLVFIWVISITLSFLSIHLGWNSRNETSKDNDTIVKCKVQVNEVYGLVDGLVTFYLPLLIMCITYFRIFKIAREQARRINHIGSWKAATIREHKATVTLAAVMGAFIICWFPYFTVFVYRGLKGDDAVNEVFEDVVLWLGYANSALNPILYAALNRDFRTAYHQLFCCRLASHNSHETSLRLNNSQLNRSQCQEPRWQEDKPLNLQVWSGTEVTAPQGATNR
- PROCEDURE_TEXT: Intrinsic agonist activity at guinea pig H2R-Gsalphas expressed in Sf9 cells by steady state GTPase activity assay relative to histamine
- Type: functional
MEASURED_QUANTITY: Intrinsic activity
Reply with just the number.

Some solved entries appear below for comparison.
SMI | Intrinsic activity
N/C(=N\C(=O)CCCCCCCCC(=O)/N=C(\N)NCCCc1cnc(N)s1)NCCCc1cnc(N)s1 | 0.94
N/C(=N\C(=O)CCCCCCCCCCCCCCCCCCCCC(=O)/N=C(\N)NCCCc1c[nH]cn1)NCCCc1c[nH]cn1 | 0.19
Cc1nc(N)sc1CCN | 1.04
Cc1nc(N)sc1CCCN/C(N)=N/C(=O)CCCCCCCCC(=O)/N=C(\N)NCCCc1cnc(N)s1 | 0.89
N/C(=N\C(=O)CCCCC(=O)/N=C(\N)NCCCc1c[nH]cn1)NCCCc1c[nH]cn1 | 1
Cc1nc(N)sc1CCCN/C(N)=N/C(=O)CCCCCCCCC(=O)/N=C(\N)NCCCc1sc(N)nc1C | 0.79

Exercise: Which Intrinsic activity value belongs to N/C(=N\C(=O)CCCCCCCCC(=O)/N=C(\N)NCCCc1c[nH]cn1)NCCCc1c[nH]cn1 ?
Key: 0.98

Exercise: Which Intrinsic activity value belongs to Cc1nc(N)sc1CCCN/C(N)=N/C(=O)CCCCCCCC(=O)/N=C(\N)NCCCc1sc(N)nc1C ?
Key: 0.9

Exercise: Which Intrinsic activity value belongs to Cc1nc(N)sc1CCCN/C(N)=N/C(=O)CCc1ccccc1 ?
Key: 0.76

Exercise: Which Intrinsic activity value belongs to N/C(=N\C(=O)CCCCCCCCC(=O)/N=C(\N)NCCCc1ncn[nH]1)NCCCc1ncn[nH]1 ?
Key: 0.95

Exercise: Which Intrinsic activity value belongs to Cc1nc(N)sc1CCCN/C(N)=N/C(=O)CCCCCCCCCCCCCCCCCCCCC(=O)/N=C(\N)NCCCc1sc(N)nc1C ?
Key: 0.58

Exercise: Which Intrinsic activity value belongs to N/C(=N\C(=O)CCCCCCC(=O)/N=C(\N)NCCCc1c[nH]cn1)NCCCc1c[nH]cn1 ?
Key: 1.18

Exercise: Which Intrinsic activity value belongs to Cc1nc(N)sc1CCCN/C(N)=N/C(=O)CCCCC(=O)/N=C(\N)NCCCc1sc(N)nc1C ?
Key: 0.9

---

// EC50 lookup, one value per entry
- EXPERIMENTAL_TARGET: Histamine H2 receptor (Homo sapiens)
- PROCEDURE_TEXT: Agonist activity at human H2R-Gsalphas expressed in Sf9 cells at 0.1 nM to 10 uM by steady state GTPase activity assay
Give a bare numeral; the unit nM is implied.

SMI | MEASURED_QUANTITY | MEASURED_NUMBER
NC(=NCCCc1nnc[nH]1)NC(=O)CCCCCCCCC(=O)NC(N)=NCCCc1nnc[nH]1 | EC50 | 151

Then this compound:
Exercise: Which EC50 value belongs to N/C(=N\C(=O)CCCCCCC(=O)/N=C(\N)NCCCc1c[nH]cn1)NCCCc1c[nH]cn1 ?
Key: 56.2

---

- EXPERIMENTAL_TARGET: Histamine H2 receptor (Homo sapiens, UniProt P25021)
- Sequence (P25021 whole entry): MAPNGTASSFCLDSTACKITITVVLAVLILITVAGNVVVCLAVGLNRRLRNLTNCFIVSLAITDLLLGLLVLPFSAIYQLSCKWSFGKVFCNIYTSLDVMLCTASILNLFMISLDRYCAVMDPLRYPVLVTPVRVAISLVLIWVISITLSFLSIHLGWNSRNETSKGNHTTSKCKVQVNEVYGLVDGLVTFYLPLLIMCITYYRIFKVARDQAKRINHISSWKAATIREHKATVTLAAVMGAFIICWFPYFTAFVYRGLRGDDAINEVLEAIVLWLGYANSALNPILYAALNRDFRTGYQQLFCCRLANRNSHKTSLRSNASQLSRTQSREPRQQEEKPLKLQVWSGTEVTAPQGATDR
- PROCEDURE_TEXT: Intrinsic agonist activity at human H2R-Gsalphas expressed in Sf9 cells by steady state GTPase activity assay relative to histamine
- Assay type: functional
// Intrinsic activity lookup, one value per entry
Reply with just the number.

MOLECULE | Intrinsic activity
Cc1nc(N)sc1CCCN/C(N)=N/C(=O)CCCCC(=O)/N=C(\N)NCCCc1sc(N)nc1C | 0.68
Cc1nc(N)sc1CCCN/C(N)=N/C(=O)CCCCCCCC(=O)/N=C(\N)NCCCc1sc(N)nc1C | 0.48
Cc1nc(N)sc1CCN [AMTHAMINE] | 0.91
N/C(=N\C(=O)CCCCCCCCCCCCCCC(=O)/N=C(\N)NCCCc1c[nH]cn1)NCCCc1c[nH]cn1 | 0.29

Exercise: Which Intrinsic activity value belongs to Cc1nc(N)sc1CCCN/C(N)=N/C(=O)CCCCCCCCC(=O)/N=C(\N)NCCCc1cnc(N)s1 ?
Key: 0.75

Exercise: Which Intrinsic activity value belongs to Cc1nc(N)sc1CCCN/C(N)=N/C(=O)CCc1ccccc1 ?
Key: 0.79

Exercise: Which Intrinsic activity value belongs to Cc1nc(N)sc1CCCN/C(N)=N/C(=O)CCCCCCCCC(=O)/N=C(\N)NCCCc1sc(N)nc1C ?
Key: 0.53

Exercise: Which Intrinsic activity value belongs to N/C(=N\C(=O)CCCCCCCCC(=O)/N=C(\N)NCCCc1ncn[nH]1)NCCCc1ncn[nH]1 ?
Key: 0.49

Exercise: Which Intrinsic activity value belongs to N/C(=N\C(=O)CCCCCCC(=O)/N=C(\N)NCCCc1cnc(N)s1)NCCCc1cnc(N)s1 ?
Key: 0.79

---

- EXPERIMENTAL_TARGET: Histamine H2 receptor (Cavia porcellus) (UniProt P47747)
- PROCEDURE_TEXT: Intrinsic agonist activity at guinea pig H2R-Gsalphas expressed in Sf9 cells by steady state GTPase activity assay relative to histamine
- Type: functional
MEASURED_QUANTITY: Intrinsic activity
Reply with just the number.

Some solved entries appear below for comparison.
SMI | EXPERIMENTAL_TARGET | Intrinsic activity
N/C(=N\C(=O)CCCCCCCCCCCCCCC(=O)/N=C(\N)NCCCc1cnc(N)s1)NCCCc1cnc(N)s1 | Histamine H2 receptor (Cavia porcellus) (UniProt P47747) | 0.59
Cc1nc(N)sc1CCCN/C(N)=N/C(=O)CCCCCCCCCCCCCCC(=O)/N=C(\N)NCCCc1sc(N)nc1C | Histamine H2 receptor (Cavia porcellus) (UniProt P47747) | 0.51
N/C(=N\C(=O)CCCCCCCCCCCCCCC(=O)/N=C(\N)NCCCc1c[nH]cn1)NCCCc1c[nH]cn1 | Histamine H2 receptor (Cavia porcellus) (UniProt P47747) | 0.85
Cc1nc(N)sc1CCCN/C(N)=N/C(=O)CCCCCCC(=O)/N=C(\N)NCCCc1sc(N)nc1C | Histamine H2 receptor (Cavia porcellus) (UniProt P47747) | 0.81
Cc1nc(N)sc1CCCN/C(N)=N/C(=O)CCCCCCCCCCC(=O)/N=C(\N)NCCCc1sc(N)nc1C | Histamine H2 receptor (Cavia porcellus) (UniProt P47747) | 0.66

Exercise: Which Intrinsic activity value belongs to N/C(=N\C(=O)CCCCCCCCCCCCCCCCCCCCC(=O)/N=C(\N)NCCCc1cnc(N)s1)NCCCc1cnc(N)s1 ?
Key: 0.36

Exercise: Which Intrinsic activity value belongs to Cc1nc(N)sc1CCCN/C(N)=N/C(=O)CCCCCCCCC(=O)/N=C(\N)NCCCc1c[nH]cn1 ?
Key: 1.01

Exercise: Which Intrinsic activity value belongs to N/C(=N\C(=O)CCCCCCC(=O)/N=C(\N)NCCCc1cnc(N)s1)NCCCc1cnc(N)s1 ?
Key: 1

---

- EXPERIMENTAL_TARGET: Histamine H4 receptor (Homo sapiens, UniProt Q9H3N8)
- Sequence (Q9H3N8 whole entry): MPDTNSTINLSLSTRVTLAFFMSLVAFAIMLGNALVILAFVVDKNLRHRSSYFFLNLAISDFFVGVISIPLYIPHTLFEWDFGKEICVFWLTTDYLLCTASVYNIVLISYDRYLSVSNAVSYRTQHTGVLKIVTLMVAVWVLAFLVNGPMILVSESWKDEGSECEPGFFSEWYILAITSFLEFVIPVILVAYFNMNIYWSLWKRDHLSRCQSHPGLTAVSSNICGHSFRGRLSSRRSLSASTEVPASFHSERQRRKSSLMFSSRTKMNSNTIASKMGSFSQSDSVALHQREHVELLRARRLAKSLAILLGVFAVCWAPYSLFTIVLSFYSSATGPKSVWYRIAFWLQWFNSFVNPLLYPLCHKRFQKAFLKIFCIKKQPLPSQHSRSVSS
- PROCEDURE_TEXT: Agonist activity at human H4R-RGS19 Galphai2 Gbeta1gamma2 expressed in Sf9 cells at 0.1 nM to 1 mM by steady state GTPase activity assay
MEASURED_QUANTITY: EC50 (nM)
Give a bare numeral; the unit nM is implied.

Some solved entries appear below for comparison.
SMI | EXPERIMENTAL_TARGET | QUANTITY_UNIT | EC50
N/C(=N\C(=O)CCCCC(=O)/N=C(\N)NCCCc1c[nH]cn1)NCCCc1c[nH]cn1 | Histamine H4 receptor (Homo sapiens, UniProt Q9H3N8) | nM | 79.4
N/C(=N\C(=O)CCCCCCCCC(=O)/N=C(\N)NCCCc1c[nH]cn1)NCCCc1c[nH]cn1 | Histamine H4 receptor (Homo sapiens, UniProt Q9H3N8) | nM | 8.51
N/C(=N\C(=O)CCCCCCC(=O)/N=C(\N)NCCCc1c[nH]cn1)NCCCc1c[nH]cn1 | Histamine H4 receptor (Homo sapiens, UniProt Q9H3N8) | nM | 41.7

Exercise: Which EC50 value belongs to Cc1nc(N)sc1CCCN/C(N)=N/C(=O)CCCCCCCCC(=O)/N=C(\N)NCCCc1c[nH]cn1 ?
Key: 8.51

Exercise: Which EC50 value belongs to N/C(=N\C(=O)CCCCCCCCCCCCCCC(=O)/N=C(\N)NCCCc1c[nH]cn1)NCCCc1c[nH]cn1 ?
Key: 339
